target: hERG (KCNH2) (Homo sapiens); test: Displacement of [3H]-dofetilide from human ERG expressed in HEK293 cell membranes after 90 mins by scintillation counting; details: membranes of HEK293 cells that express human ERG, probe [3H]-dofetilide
Sequence (Q12809 whole entry): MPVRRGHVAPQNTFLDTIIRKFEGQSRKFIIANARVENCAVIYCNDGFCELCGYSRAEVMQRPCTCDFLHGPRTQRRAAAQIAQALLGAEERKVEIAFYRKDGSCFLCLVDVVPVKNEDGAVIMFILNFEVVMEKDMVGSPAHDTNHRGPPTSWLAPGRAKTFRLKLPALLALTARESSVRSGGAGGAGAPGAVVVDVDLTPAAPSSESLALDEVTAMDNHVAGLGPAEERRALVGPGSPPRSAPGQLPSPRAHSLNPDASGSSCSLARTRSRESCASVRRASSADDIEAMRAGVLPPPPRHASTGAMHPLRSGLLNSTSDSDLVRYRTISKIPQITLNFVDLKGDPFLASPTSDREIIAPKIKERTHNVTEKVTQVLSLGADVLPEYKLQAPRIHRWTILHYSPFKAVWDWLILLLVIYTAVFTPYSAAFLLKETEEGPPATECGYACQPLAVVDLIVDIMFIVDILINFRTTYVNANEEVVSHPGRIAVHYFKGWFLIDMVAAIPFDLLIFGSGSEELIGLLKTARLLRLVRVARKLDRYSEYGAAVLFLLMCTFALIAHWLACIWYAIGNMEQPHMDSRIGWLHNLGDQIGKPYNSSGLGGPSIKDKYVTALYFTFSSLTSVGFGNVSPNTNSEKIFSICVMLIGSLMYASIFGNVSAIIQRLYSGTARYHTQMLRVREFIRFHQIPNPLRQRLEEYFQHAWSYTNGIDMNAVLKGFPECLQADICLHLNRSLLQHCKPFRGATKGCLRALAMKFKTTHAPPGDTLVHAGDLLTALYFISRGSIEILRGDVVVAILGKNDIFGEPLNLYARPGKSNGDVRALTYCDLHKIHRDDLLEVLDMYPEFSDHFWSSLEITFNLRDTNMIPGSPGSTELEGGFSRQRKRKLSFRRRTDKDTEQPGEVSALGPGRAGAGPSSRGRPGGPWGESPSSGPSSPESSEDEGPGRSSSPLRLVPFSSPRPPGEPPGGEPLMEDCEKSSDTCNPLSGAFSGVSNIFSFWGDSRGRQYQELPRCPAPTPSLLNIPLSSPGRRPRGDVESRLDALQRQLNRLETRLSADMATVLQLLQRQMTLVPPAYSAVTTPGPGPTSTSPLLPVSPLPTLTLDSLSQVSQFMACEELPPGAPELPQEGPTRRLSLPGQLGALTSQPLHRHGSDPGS
observation type: IC50 at 90 min
Reply with the number and its unit after it.

What value of IC50 at 90 min has been reported for the following compound? `FC(F)Oc1cc(-c2cnn(Cc3cn[nH]c3)c2)ccc1Cl`
52.6 µM

Fill in: IC50 at 90 min of `Cn1ccc(Cn2cc(-c3ccc(Cl)c(C(F)(F)F)c3)cn2)n1` is ___
3.47 µM

* * *

target: Glutamate receptor ionotropic, NMDA 2B (Rattus norvegicus, UniProt Q00960); experiment: Antagonist activity at Wistar rat brain NR2B assessed as inhibition of glutamate/glycine-induced Ca2+ flux measured after 90 secs
Sequence (Q00960 whole entry): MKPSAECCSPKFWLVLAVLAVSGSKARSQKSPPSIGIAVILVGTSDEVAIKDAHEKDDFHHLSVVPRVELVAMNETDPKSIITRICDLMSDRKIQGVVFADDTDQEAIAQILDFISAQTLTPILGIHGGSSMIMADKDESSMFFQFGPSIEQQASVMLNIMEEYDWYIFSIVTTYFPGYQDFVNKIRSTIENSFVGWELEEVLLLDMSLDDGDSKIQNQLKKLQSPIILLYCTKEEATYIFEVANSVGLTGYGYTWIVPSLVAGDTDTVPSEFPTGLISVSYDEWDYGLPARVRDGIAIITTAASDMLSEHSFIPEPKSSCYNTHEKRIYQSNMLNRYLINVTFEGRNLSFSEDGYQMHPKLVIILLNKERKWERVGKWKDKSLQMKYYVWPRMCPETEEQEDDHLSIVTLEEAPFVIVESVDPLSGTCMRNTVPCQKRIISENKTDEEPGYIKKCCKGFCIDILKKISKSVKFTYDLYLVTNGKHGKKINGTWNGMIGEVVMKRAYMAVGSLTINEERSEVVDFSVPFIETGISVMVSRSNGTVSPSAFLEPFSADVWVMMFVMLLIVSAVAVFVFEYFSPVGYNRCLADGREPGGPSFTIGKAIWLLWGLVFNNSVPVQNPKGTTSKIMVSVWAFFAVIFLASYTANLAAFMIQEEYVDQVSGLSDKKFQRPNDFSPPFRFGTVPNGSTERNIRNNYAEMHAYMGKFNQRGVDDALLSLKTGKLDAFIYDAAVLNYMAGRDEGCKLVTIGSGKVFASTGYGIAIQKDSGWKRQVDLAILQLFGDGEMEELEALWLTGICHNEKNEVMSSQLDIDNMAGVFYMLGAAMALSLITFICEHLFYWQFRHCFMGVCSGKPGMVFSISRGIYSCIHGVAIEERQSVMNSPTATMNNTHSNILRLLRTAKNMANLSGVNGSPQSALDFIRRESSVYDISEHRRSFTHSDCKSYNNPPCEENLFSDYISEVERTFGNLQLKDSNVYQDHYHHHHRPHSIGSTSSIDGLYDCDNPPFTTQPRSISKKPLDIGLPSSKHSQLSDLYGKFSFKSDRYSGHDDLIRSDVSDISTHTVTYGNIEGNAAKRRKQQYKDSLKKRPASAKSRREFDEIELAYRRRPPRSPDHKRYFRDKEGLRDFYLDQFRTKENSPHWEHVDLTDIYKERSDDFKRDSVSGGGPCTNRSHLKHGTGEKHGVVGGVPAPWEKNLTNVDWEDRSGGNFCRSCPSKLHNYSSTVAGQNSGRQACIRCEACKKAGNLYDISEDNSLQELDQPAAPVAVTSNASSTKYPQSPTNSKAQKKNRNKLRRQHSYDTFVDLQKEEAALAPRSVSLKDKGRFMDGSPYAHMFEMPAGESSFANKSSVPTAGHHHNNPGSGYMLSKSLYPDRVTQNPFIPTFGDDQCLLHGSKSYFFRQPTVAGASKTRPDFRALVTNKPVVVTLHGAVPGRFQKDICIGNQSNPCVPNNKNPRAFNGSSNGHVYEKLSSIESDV
Please provide measured IC50 for the entries that follow.
The answer consists of two parts: a number and, after it, its unit.

I would be grateful if you could share the reported IC50 for `FC(F)Oc1cc(-c2cnn(Cc3cn[nH]c3)c2)ccc1Cl` .
8.23 nM

What measured IC50 goes with `Cn1ccc(Cn2cc(-c3ccc(Cl)c(C(F)(F)F)c3)cn2)n1` ?
1010 nM

Data origin: ChEMBL document CHEMBL3864170
